Test system: classical pathway (CP)
Assay: CP-specific ELISA
Type: biochemical, human
Conditions: CP ELISA, C4b deposition, A1 100 – 3.1 μM
Reported property: IC50
State the value with its unit after it.

Supply measured IC50 of N=C(N)c1ccc(N2CCN(c3ccccc3)CC2)nc1 in your reply. 22 µM

----------
Reported Ki values for a set of compounds
Target: C1s-2SP (Homo sapiens)
Sequence (P09871 357-423 limits assumed): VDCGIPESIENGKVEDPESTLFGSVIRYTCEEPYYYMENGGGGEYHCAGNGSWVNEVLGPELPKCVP
Sequence (P09871 438-688 limits assumed): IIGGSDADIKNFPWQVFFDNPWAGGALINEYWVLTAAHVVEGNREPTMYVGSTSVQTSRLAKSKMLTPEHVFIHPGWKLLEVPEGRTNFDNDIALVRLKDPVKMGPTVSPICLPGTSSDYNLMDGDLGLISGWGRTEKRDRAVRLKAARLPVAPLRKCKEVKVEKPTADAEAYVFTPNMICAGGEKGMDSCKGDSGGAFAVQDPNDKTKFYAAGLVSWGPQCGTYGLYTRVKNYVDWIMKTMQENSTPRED
Experiment: C1s-2SP chromogenic ZGR cleavage assay
Type: biochemical
Conditions: recombinant human C1s-2SP, competitive inhibition model
Express your answer in µM, writing the number without its unit.

[
  {
    "Sample smiles": "Cc1cccc(N2CCN(c3ccc(C(=N)N)cn3)CC2)c1",
    "Experimental target": "C1s-2SP (Homo sapiens)",
    "Units symbol": "µM",
    "Ki": 22.6
  }
]

Next:
Supply measured Ki of N=C(N)c1ccc(N2CCN(c3cccc(F)c3)CC2)nc1 in your reply. 19.5

----------
Target: UniProt:P09871
Sequence (P09871 357-423 limits assumed): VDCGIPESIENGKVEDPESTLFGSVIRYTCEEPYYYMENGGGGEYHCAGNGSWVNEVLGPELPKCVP
Sequence (P09871 438-688 limits assumed): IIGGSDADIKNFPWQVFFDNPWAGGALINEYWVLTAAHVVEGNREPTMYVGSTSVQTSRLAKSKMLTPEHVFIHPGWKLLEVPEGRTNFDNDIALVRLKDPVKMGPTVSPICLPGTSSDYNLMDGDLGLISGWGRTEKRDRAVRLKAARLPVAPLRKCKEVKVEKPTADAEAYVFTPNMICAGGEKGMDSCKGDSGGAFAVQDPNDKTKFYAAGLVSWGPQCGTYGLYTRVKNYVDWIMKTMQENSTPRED
Test: C1s-2SP chromogenic ZGR cleavage assay
Type: biochemical
Reported property: pKi
Scale explanation: pKi corresponds to minus log10 of a concentration expressed in moles per litre.

Supply measured pKi of N=C(N)c1ccc(N2CCN(c3ccccc3)CC2)nc1 in your reply. 5.07
